Data provenance: ChEMBL document CHEMBL1157539

# System: Plasmodium falciparum
# MEASUREMENT PROTOCOL: GSK_TCMDC: Inhibition of Plasmodium falciparum 3D7 in whole red blood cells, using parasite LDH activity as an index of growth. Test compounds present at 2uM
# Type: functional
Decision: Inhibition beneath 90% gives yes; Inhibition meeting or exceeding 90% gives no.

> print(dat)
                                   compound  label.class
1  FC(F)(F)c1ccc2[nH]c(-c3ccc(-c4ccc(CN5CCN(c6cnccn6)CC5)cc4)s3)nc2c1.O=C(O)C(F)(F)F           no
2  COc1cccc(C(=O)OC2=C3CCC(=O)C3(C)CCC2=O)c1 (centres undefined)           no
3  CC(CN(C)C)C(=O)Nc1ccc(-c2csc(-c3nc4ccccc4[nH]3)c2)cc1 (centres undefined)          yes
4         Cl.Oc1ccc(Cc2ccccc2)cc1CNC1CCCCC1           no
5  CCc1nnc2sc(-c3cccc(NC(=O)c4ccc(C)c([N+](=O)[O-])c4)c3)nn12          yes
6  CCCCCCNC(=O)c1nn(CCN2CCC(N3CCCC3)CC2)cc1-c1ccc(Cl)c(Cl)c1           no
7  COc1ccc(O)c(C(=O)c2cc(C(=O)NCCc3ccccc3)c(=O)n(CCc3ccccc3)c2)c1           no
8  Cc1cc(N[C@@H](Cc2ccccc2)C(=O)NCCOc2ccccc2)nc(NCC2CCCCC2)n1.O=C(O)C(F)(F)F           no
